- assaySystem: UniProt Q9EPK8
- methodSummary: Ca2+ mobilization (FLUO4, FLIPR) in CHO-K1 cells expressing mTRPV4
- Format: cell-based
- experimentalParameters: single high dose 20 μM; CHO-K1 cells expressing mTRPV4
Values of Response of cells (fluorescence units), mTRPV4 cells strictly less than 60 fluorescence units map to y, and values of at least 60 fluorescence units map to n.

Below are worked cases with known answers.
compound: Cl[C@H]1[C@H](Cl)[C@@H](Cl)[C@@H](Cl)[C@H](Cl)[C@H]1Cl
assignedLabel: y

compound: Clc1ccc(C2CC3CCC2N3)cn1 (centres unmarked) [Epibatidine]
assignedLabel: n

Exercise: Here's an entry: CC[S+]([O-])c1c(C#N)nn(-c2c(Cl)cc(C(F)(F)F)cc2Cl)c1N (centres unmarked) . Is its Response of cells (fluorescence units), mTRPV4 cells below 60 fluorescence units?
Solution: n

Exercise: Here's an entry: NCC(O)c1ccc(O)cc1 (centres unmarked) . Is its Response of cells (fluorescence units), mTRPV4 cells below 60 fluorescence units?
Solution: y

Exercise: Here's an entry: CNC(=O)c1cc(Cl)cc(C)c1NC(=O)c1cc(Br)nn1-c1ncccc1Cl . Is its Response of cells (fluorescence units), mTRPV4 cells below 60 fluorescence units?
Solution: n

* * *

- assaySystem: mouse TRPV4 (mTRPV4) (Mus musculus, UniProt Q9EPK8)
- Sequence (Q9EPK8 whole entry): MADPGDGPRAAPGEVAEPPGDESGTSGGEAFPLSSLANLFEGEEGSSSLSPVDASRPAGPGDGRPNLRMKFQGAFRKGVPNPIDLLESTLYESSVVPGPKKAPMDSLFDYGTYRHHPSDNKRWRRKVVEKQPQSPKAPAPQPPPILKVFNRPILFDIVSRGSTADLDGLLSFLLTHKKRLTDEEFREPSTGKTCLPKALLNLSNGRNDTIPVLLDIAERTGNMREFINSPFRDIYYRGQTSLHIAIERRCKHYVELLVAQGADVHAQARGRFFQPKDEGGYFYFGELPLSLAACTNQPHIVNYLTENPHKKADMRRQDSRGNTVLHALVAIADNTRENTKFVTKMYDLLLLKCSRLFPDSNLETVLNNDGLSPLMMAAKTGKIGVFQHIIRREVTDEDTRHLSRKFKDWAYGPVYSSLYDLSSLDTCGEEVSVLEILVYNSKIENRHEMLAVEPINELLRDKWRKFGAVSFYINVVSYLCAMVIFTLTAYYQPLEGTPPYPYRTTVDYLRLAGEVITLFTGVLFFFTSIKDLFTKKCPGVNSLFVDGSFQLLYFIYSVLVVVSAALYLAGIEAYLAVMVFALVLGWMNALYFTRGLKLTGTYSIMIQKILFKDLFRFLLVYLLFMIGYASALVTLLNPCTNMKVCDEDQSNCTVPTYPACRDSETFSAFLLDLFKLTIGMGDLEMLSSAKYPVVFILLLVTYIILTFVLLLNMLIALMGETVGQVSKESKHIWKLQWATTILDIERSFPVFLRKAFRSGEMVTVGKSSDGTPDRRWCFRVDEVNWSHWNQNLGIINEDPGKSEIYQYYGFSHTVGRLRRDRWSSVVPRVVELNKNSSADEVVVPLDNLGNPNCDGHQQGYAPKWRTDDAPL
- methodSummary: Ca2+ mobilization (FLUO4, FLIPR) in CHO-K1 cells expressing mTRPV4
- Assay type: cell-based
- experimentalParameters: single high dose 20 μM; CHO-K1 cells expressing mTRPV4
Values of Response of cells (fluorescence units), mTRPV4 cells strictly less than 20 fluorescence units map to Y, and values of at least 20 fluorescence units map to N.

compound: CC(C)C[C@H](NC(=O)c1cc2ccccc2s1)C(=O)N1CCN(C(=O)[C@H](CO)NS(=O)(=O)c2ccc(Cl)cc2Cl)CC1 [GSK1016790A]
assignedLabel: N
//
compound: NCCCC(=O)O
assignedLabel: N
//
compound: c1ccc2c(CC3=NCCN3)cccc2c1
assignedLabel: Y
//
compound: O=C1Nc2ccc(C(F)(C(F)(F)F)C(F)(F)F)cc2CN1NCc1cccnc1 [Pyrifluquinazon metabolite B]
assignedLabel: N
//
compound: CN/C(=N/CC1CCOC1)N[N+](=O)[O-] (centres unmarked)
assignedLabel: N

Exercise: Here's an entry: CN1CCN2c3ccccc3Cc3ccccc3C2C1 (centres unmarked) . Is its Response of cells (fluorescence units), mTRPV4 cells below 20 fluorescence units?
Solution: N

Exercise: Here's an entry: N#C/N=C1\SCCN1Cc1ccc(Cl)nc1 . Is its Response of cells (fluorescence units), mTRPV4 cells below 20 fluorescence units?
Solution: Y

Exercise: Here's an entry: ClC1=C(Cl)[C@]2(Cl)[C@@H]3[C@@H]4C[C@@H]([C@H]5O[C@@H]45)[C@@H]3[C@@]1(Cl)C2(Cl)Cl . Is its Response of cells (fluorescence units), mTRPV4 cells below 20 fluorescence units?
Solution: N

Exercise: Here's an entry: O=[N+]([O-])NC1=NCCN1Cc1ccc(Cl)nc1 . Is its Response of cells (fluorescence units), mTRPV4 cells below 20 fluorescence units?
Solution: Y

Exercise: Here's an entry: Cc1ccc(/N=C/N(C)/C=N/c2ccc(C)cc2C)c(C)c1 . Is its Response of cells (fluorescence units), mTRPV4 cells below 20 fluorescence units?
Solution: N

Exercise: Here's an entry: N#Cc1nn(-c2c(Cl)cc(C(F)(F)F)cc2Cl)c(N)c1[S+]([O-])C(F)(F)F (centres unmarked) . Is its Response of cells (fluorescence units), mTRPV4 cells below 20 fluorescence units?
Solution: N
